Quick reference for inhibition at 200 µg/mL among some molecules
tested on: Tobacco mosaic virus; experiment: Antiviral activity against Tobacco mosaic virus (TMV) assessed as inhibition of viral replication at 0.2 mg/ml after 48 hr by leaf disk method relative to control; format: functional
parameter: inhibition at 200 µg/mL (%)

{"molecule": "CC1=C2C3=CC[C@@H]4[C@@]5(C)CC[C@H](O[C@@H]6OC[C@@H](O)[C@H](O)[C@H]6O)[C@@](C)(CO)[C@@H]5CC[C@@]4(C)[C@]3(C)CC[C@@]2(C(=O)O[C@@H]2O[C@H](CO)[C@@H](O)[C@H](O)[C@H]2O)CC[C@H]1C [OBLONGANOSIDE C]", "parameter": "inhibition at 200 µg/mL", "assay-value": 38.6}
{"molecule": "CC1=C(C)[C@H]2C3=CC[C@@H]4[C@@]5(C)CC[C@@H]6O[C@H](CO)OC[C@@]6(C)[C@@H]5CC[C@@]4(C)[C@]3(C)CC[C@@]2(C(=O)O[C@@H]2O[C@H](CO)[C@@H](O)[C@H](O)[C@H]2O)CC1 [Oblonganoside A]", "parameter": "inhibition at 200 µg/mL", "assay-value": 80.3}

====

system: Tobacco mosaic virus; experiment: Antiviral activity against Tobacco mosaic virus (TMV) assessed as inhibition of viral replication at 0.2 mg/ml after 48 hr by leaf disk method relative to control; assay type: functional

{"compound": "CC1=C2C3=CC[C@@H]4[C@@]5(C)CC[C@H](O)[C@@](C)(CO)[C@@H]5CC[C@@]4(C)[C@]3(C)CC[C@@]2(C(=O)O[C@@H]2O[C@H](CO)[C@@H](O)[C@H](O)[C@H]2O)CC[C@H]1C", "inhibition at 200 µg/mL / %": 47.3}
{"compound": "C=C1C2C3=CC[C@@H]4[C@@]5(C)CC[C@H](O)[C@@](C)(CO)[C@@H]5CC[C@@]4(C)[C@]3(C)CC[C@@]2(C(=O)O[C@@H]2O[C@H](CO)[C@@H](O)[C@H](O)[C@H]2O)CC[C@H]1C (stereo partly drawn)", "inhibition at 200 µg/mL / %": 29.6}
{"compound": "CC1=C(C)[C@H]2C3=CC[C@@H]4[C@@]5(C)CC[C@H](O[C@@H]6OC[C@@H](O)[C@H](O)[C@H]6O)C(C)(C)[C@@H]5CC[C@@]4(C)[C@]3(C)CC[C@@]2(C(=O)O[C@@H]2O[C@H](CO)[C@@H](O)[C@H](O)[C@H]2O)CC1 [Oblonganoside B]", "inhibition at 200 µg/mL / %": 56.4}

====

tested on: Tobacco mosaic virus; assay: Antiviral activity against Tobacco mosaic virus (TMV) assessed as inhibition of viral replication at 0.2 mg/ml after 48 hr by leaf disk method relative to control; assay type: functional
Quick reference for inhibition at 200 µg/mL among some molecules

{"molecule": "C=C1CC[C@]2(C(=O)O[C@@H]3O[C@H](CO)[C@@H](O)[C@H](O)[C@H]3O)CC[C@]3(C)C(=CC[C@@H]4[C@@]5(C)CC[C@H](O[C@@H]6OC[C@@H](O)[C@H](O)[C@H]6O)C(C)(C)[C@@H]5CC[C@]43C)C2[C@]1(C)O (some centres not stated) [Oblonganoside F]", "inhibition at 200 µg/mL / %": 39.7}
{"molecule": "CC1=C2C3=CC[C@@H]4[C@@]5(C)CC[C@H](O[C@@H]6OC[C@@H](O)[C@H](O)[C@H]6O)C(C)(C)[C@@H]5CC[C@@]4(C)[C@]3(C)CC[C@@]2(C(=O)O[C@@H]2O[C@H](CO)[C@@H](O)[C@H](O)[C@H]2O)CC[C@H]1C", "inhibition at 200 µg/mL / %": 33}
